// values below are reported Relative Protease Enzyme Activity
System: protease
assay_text: Protease activity retention in detergent use solution (4000 ppm, 5 GPG water; peptidyl substrate, glycine buffer pH 9.0)
Format: biochemical
applied_conditions: base formula, phosphonate 0.6 wt-%, use solution at 120° F., time 5 min
measured_metric: Relative Protease Enzyme Activity (%)

{"molecule": "O=C(O)CCC(CC(=O)O)(C(=O)O)P(=O)(O)O (stereo not shown)", "unit_abbrev": "%", "quantitative_result": 60.27}
{"molecule": "NCP(=O)(O)O", "unit_abbrev": "%", "quantitative_result": 109.27}
{"molecule": "O=P(O)(O)CN(CP(=O)(O)O)CP(=O)(O)O", "unit_abbrev": "%", "quantitative_result": 91.70}
{"molecule": "CC(O)(P(=O)(O)O)P(=O)(O)O", "unit_abbrev": "%", "quantitative_result": 69.69}

---

System: protease
assay_text: Protease activity retention in detergent use solution (4000 ppm, 5 GPG water; peptidyl substrate, glycine buffer pH 9.0)
Type: biochemical
applied_conditions: base formula, phosphonate at 0.1% elemental phosphorus, use solution at 120° F., time 40 min
// values below are reported Relative Protease Enzyme Activity

{"molecule": "NCP(=O)(O)O [AMPA, Aminomethyl phosphonic acid]", "system": "protease", "unit_abbrev": "%", "Relative Protease Enzyme Activity": 70.58}
{"molecule": "O=P(O)(O)CN(CP(=O)(O)O)CP(=O)(O)O [ATMP, Aminotri (methylene phosphonic acid)]", "system": "protease", "unit_abbrev": "%", "Relative Protease Enzyme Activity": 107.73}
{"molecule": "CC(O)(P(=O)(O)O)P(=O)(O)O [HEDP]", "system": "protease", "unit_abbrev": "%", "Relative Protease Enzyme Activity": 9.12}
{"molecule": "O=C(O)CCC(CC(=O)O)(C(=O)O)P(=O)(O)O (stereo not shown) [PBTC, Phosphonebutane tricarboxylic acid]", "system": "protease", "unit_abbrev": "%", "Relative Protease Enzyme Activity": 8.20}

---

System: amylase
assay_text: Amylase activity retention in detergent use solution (4000 ppm, 5 GPG water; ethylidene substrate EPS, HEPES buffer pH 8.0)
Assay type: biochemical
applied_conditions: base formula, phosphonate 0.6 wt-%, use solution at 120º F., time 120 min

{"compound": "O=C(O)CCC(CC(=O)O)(C(=O)O)P(=O)(O)O (stereo not shown)", "Relative Amylase Enzyme Activity / %": 64.98}
{"compound": "NCP(=O)(O)O", "Relative Amylase Enzyme Activity / %": 93.67}
{"compound": "CC(O)(P(=O)(O)O)P(=O)(O)O", "Relative Amylase Enzyme Activity / %": 88.12}
{"compound": "O=P(O)(O)CN(CP(=O)(O)O)CP(=O)(O)O", "Relative Amylase Enzyme Activity / %": 93.02}

---

System: protease
assay_text: Protease activity retention in detergent use solution (4000 ppm, 5 GPG water; peptidyl substrate, glycine buffer pH 9.0)
Assay type: biochemical
applied_conditions: base formula, phosphonate 0.6 wt-%, use solution at 120° F., time 150 min
// values below are reported Relative Protease Enzyme Activity

{"compound": "O=C(O)CCC(CC(=O)O)(C(=O)O)P(=O)(O)O (stereo not shown) [PBTC, Phosphonebutane tricarboxylic acid]", "unit_abbrev": "%", "Relative Protease Enzyme Activity": 1.32}
{"compound": "O=P(O)(O)CN(CP(=O)(O)O)CP(=O)(O)O [ATMP, Aminotri (methylene phosphonic acid)]", "unit_abbrev": "%", "Relative Protease Enzyme Activity": 86.21}
{"compound": "CC(O)(P(=O)(O)O)P(=O)(O)O [HEDP]", "unit_abbrev": "%", "Relative Protease Enzyme Activity": 1.79}
{"compound": "NCP(=O)(O)O [AMPA, Aminomethyl phosphonic acid]", "unit_abbrev": "%", "Relative Protease Enzyme Activity": 51.19}
